Test system: EKVX NSCLC
assay-procedure: NCI-60 one-dose screen, 48 h (100 = growth as untreated, 0 = no growth, -100 = all killed)
measurement-setup: 10 µM unless noted
This is part of a sample that, as a whole, favours compounds with a hit. Of some 83,000 tested, about 20% had one in any assay.
readout-kind: growth (%)
Answers are plain numbers, in %.

Before answering, review these 3 worked examples.
O=C(OCc1ccc2c(Cl)cc(Cl)c(O)c2n1)c1cc2ccccc2[nH]1	-71.9
c1ccc(C(CC2=NCCCN2)c2ccccc2)cc1	97.2
CN1CCN(Cc2ccc(NC(=O)c3cnc(F)c(C#Cc4cnc(N)c5ncccc45)c3)cc2C(F)(F)F)CC1	23.7

Dear reader, for each entry below, please note its growth.
1. COc1cc(-c2csc(NC(=O)Nc3cccc(C(F)(F)F)c3)n2)cc(OC)c1OC
2. COc1cc(C2Nc3ccccc3S2)cc(CN2CCOCC2)c1O (stereo not given)

1. 38.3
2. 102

Dear reader, for each entry below, please note its growth.
1. Clc1cn2cc(-c3ccc(Cl)c(Cl)c3Cl)nc2s1
2. CCCCCCCCCCCCCCCC1=NCC[N+]1(CCO)CCO
3. CC(=O)O[C@H]1[C@H](CC#CC#CC[C@@H]2C[C@]3(C)[C@H]4CC=C5[C@H]6[C@@H](C)[C@H](C)CC[C@]6(C(=O)NCCCCCCCCN)CC[C@@]5(C)[C@]4(C)CC[C@H]3C(C)(C)[C@H]2OC(C)=O)C[C@]2(C)[C@H]3CC=C4[C@H]5[C@@H](C)[C@H](C)CC[C@]5(C(=O)NCCCCCCCCN)CC[C@@]4(C)[C@]3(C)CC[C@H]2C1(C)C
4. COc1ccc(C(=O)c2cc(C)c(OC)c(C)c2)cc1OC(=O)CCl
5. CCCCCNCCCCCNc1cc(OC)cc2cccnc12

1. 110
2. 72.3
3. 110
4. 44.9
5. 101

Source of measurements: PubChem BioAssay (NCI)
